# Tested On: CaMKK2 (Mus musculus, UniProt Q8C078)
# Sequence (Q8C078 whole entry): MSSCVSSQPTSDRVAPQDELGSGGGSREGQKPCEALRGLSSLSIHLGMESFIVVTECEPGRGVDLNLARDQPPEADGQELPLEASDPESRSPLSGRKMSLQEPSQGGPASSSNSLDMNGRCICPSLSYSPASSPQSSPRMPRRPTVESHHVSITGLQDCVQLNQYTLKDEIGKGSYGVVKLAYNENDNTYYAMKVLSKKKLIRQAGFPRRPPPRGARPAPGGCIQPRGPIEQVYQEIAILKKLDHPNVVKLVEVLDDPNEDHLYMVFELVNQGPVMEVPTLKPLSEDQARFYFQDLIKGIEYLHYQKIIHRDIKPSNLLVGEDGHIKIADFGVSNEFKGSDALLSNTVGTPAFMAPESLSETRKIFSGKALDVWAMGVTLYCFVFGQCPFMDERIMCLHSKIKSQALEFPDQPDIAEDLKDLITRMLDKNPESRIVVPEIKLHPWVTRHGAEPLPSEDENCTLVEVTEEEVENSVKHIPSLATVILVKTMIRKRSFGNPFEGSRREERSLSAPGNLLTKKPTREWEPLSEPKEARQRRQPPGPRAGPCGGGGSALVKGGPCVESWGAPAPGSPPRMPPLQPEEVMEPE
# Protocol Notes: Kinobeads elution with test compound, mouse brain lysate, MS
# Assay type: binding
# Study Conditions: kinase released from kinobeads by specific elution
# Procedure: This example illustrates competitive elution of proteins bound to kinobeads with non-modified test compounds (see particularly the fourth aspect of the invention). The kinobeads (as described in example 1) were contacted with mouse brains lysate, bound proteins were eluted with various test compounds and the released proteins were analysed by mass spectrometry. The kinobeads were contacted with mouse brain lysate under conditions that allow the binding of the proteins in the lysate to the ligands. […]
Please use TRUE for mass spectrometry score, CaMKK2 under 500 and FALSE for everything else, ties included.

> print(dat)
                                   compound                              tested.on  assigned.class
1  NCCCn1cc(C2=C(c3c[nH]c4ccccc34)C(=O)NC2=O)c2ccccc21 [CZC1038, Bisindolylmaleimide III, reference compound]  CaMKK2 (Mus musculus, UniProt Q8C078)            TRUE
2          CCCCCCCCCCCCOS(=O)(=O)[O-].[Na+]  CaMKK2 (Mus musculus, UniProt Q8C078)            TRUE
3       NCc1ccc(Nc2ncc(F)c(Nc3ccccc3)n2)cc1  CaMKK2 (Mus musculus, UniProt Q8C078)           FALSE
4  Cn1c(=O)c(-c2c(Cl)cccc2Cl)cc2cnc(Nc3ccc(CN)cc3)cc21  CaMKK2 (Mus musculus, UniProt Q8C078)            TRUE
5  CC(C)[C@H](CO)Nc1nc(Nc2ccc(C(=O)O)c(Cl)c2)c2ncn(C(C)C)c2n1 [Purvalanol B, reference compound]  CaMKK2 (Mus musculus, UniProt Q8C078)            TRUE
6  CNC1CC2OC(C)(C1OC)n1c3ccccc3c3c4c(c5c6ccccc6n2c5c31)C(=O)NC4 (stereo not drawn)  CaMKK2 (Mus musculus, UniProt Q8C078)            TRUE

---

# Tested On: Erk1ps5 (Mus musculus, UniProt Q63844)
# Construct: […]; from tissue; host or cells: mouse brain
# Sequence (Q63844 2-380 limits assumed): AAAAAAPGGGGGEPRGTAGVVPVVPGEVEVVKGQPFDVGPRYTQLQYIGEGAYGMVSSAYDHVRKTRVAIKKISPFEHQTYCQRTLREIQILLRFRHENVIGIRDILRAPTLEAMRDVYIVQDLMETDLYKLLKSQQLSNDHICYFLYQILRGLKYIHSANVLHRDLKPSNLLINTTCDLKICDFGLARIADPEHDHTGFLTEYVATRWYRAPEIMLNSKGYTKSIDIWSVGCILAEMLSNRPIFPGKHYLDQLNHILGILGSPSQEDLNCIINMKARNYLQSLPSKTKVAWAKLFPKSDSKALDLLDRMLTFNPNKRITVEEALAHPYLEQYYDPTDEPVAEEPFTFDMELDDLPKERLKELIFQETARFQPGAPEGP
# Protocol Notes: Kinobeads elution with test compound, mouse brain lysate, MS
# Format: binding
# Study Conditions: kinase released from kinobeads by specific elution
# Experimental: This example illustrates competitive elution of proteins bound to kinobeads with non-modified test compounds (see particularly the fourth aspect of the invention). The kinobeads (as described in example 1) were contacted with mouse brains lysate, bound proteins were eluted with various test compounds and the released proteins were analysed by mass spectrometry. The kinobeads were contacted with mouse brain lysate under conditions that allow the binding of the proteins in the lysate to the ligands. […]
Rule: class 1 for mass spectrometry score, Erk1ps5 not less than 200, class 0 for anything less.

> print(dat)
                                   compound  assigned.class
1  CC(C)[C@H](CO)Nc1nc(Nc2ccc(C(=O)O)c(Cl)c2)c2ncn(C(C)C)c2n1 [Purvalanol B, reference compound]         class 1
2  CNC1CC2OC(C)(C1OC)n1c3ccccc3c3c4c(c5c6ccccc6n2c5c31)C(=O)NC4 (stereo not drawn)         class 0
3       NCc1ccc(Nc2ncc(F)c(Nc3ccccc3)n2)cc1         class 1
4  Cn1c(=O)c(-c2c(Cl)cccc2Cl)cc2cnc(Nc3ccc(CN)cc3)cc21         class 1
5          CCCCCCCCCCCCOS(=O)(=O)[O-].[Na+]         class 1
6  NCCCn1cc(C2=C(c3c[nH]c4ccccc34)C(=O)NC2=O)c2ccccc21 [CZC1038, Bisindolylmaleimide III, reference compound]         class 1

---

# Tested on: RSK3 (Mus musculus)
# Construct: from tissue; host or cells: mouse brain
# Sequence (P18653 whole entry): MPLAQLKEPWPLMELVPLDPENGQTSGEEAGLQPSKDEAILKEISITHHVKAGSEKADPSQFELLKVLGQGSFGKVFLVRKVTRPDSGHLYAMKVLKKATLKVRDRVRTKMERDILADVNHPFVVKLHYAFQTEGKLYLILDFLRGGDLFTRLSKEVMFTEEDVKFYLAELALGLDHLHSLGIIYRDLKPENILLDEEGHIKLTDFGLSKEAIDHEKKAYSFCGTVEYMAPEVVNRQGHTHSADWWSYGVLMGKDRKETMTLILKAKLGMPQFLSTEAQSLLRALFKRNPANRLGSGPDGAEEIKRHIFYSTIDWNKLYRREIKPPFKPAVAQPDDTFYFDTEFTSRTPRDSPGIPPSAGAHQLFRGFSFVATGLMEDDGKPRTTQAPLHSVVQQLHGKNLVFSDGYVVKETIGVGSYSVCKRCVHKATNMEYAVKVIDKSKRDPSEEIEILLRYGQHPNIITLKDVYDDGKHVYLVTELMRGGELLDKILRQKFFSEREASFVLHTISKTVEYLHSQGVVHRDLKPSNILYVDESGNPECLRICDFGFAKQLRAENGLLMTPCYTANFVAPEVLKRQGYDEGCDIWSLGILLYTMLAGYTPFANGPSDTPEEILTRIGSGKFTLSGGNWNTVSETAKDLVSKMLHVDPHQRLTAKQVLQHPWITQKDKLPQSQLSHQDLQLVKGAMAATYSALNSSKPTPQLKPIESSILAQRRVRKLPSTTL
# Protocol Notes: Kinobeads elution with test compound, mouse brain lysate, MS
# Assay type: binding
# Study Conditions: kinase released from kinobeads by specific elution
Below, each entry is listed with its recorded mass spectrometry score, RSK3.
Readout Name: mass spectrometry score, RSK3

> print(dat)
                                   compound                   readout.name  reported
1  Cn1c(=O)c(-c2c(Cl)cccc2Cl)cc2cnc(Nc3ccc(CN)cc3)cc21  mass spectrometry score, RSK3       312
2          CCCCCCCCCCCCOS(=O)(=O)[O-].[Na+]  mass spectrometry score, RSK3       107
3  CC(C)[C@H](CO)Nc1nc(Nc2ccc(C(=O)O)c(Cl)c2)c2ncn(C(C)C)c2n1 [Purvalanol B, reference compound]  mass spectrometry score, RSK3       401
4  CNC1CC2OC(C)(C1OC)n1c3ccccc3c3c4c(c5c6ccccc6n2c5c31)C(=O)NC4 (stereo not shown)  mass spectrometry score, RSK3       721

---

# Tested On: AAK1 (Mus musculus, UniProt Q3UHJ0)
# Sequence (Q3UHJ0 whole entry): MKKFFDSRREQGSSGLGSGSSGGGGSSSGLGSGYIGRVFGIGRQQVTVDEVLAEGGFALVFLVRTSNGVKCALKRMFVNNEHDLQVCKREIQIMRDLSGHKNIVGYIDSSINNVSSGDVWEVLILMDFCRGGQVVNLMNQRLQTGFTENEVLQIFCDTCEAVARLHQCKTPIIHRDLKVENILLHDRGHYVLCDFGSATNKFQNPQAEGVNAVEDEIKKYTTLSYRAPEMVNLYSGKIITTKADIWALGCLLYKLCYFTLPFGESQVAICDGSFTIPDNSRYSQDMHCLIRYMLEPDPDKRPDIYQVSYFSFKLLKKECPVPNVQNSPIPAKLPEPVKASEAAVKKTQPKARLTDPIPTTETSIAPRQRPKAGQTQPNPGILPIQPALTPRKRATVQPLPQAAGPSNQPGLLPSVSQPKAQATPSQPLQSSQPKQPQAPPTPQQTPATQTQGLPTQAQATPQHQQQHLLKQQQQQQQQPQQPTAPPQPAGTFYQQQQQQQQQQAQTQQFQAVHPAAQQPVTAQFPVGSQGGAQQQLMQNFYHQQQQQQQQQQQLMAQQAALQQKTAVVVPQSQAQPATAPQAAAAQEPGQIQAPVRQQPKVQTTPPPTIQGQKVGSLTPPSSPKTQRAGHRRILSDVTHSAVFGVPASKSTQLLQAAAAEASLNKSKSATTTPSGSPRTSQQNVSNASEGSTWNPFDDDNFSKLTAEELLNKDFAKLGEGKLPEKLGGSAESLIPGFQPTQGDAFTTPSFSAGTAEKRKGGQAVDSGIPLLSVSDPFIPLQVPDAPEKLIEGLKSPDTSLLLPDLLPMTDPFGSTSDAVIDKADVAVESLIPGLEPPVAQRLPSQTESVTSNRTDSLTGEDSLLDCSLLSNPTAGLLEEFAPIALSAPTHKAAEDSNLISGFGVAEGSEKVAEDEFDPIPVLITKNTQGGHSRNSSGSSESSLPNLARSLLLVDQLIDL
# Protocol Notes: Kinobeads elution with test compound, mouse brain lysate, MS
# Assay type: binding
# Study Conditions: kinase released from kinobeads by specific elution
Below, each entry is listed with its recorded number of identified peptides, AAK1.
Readout Name: number of identified peptides, AAK1

> print(dat)
                                   compound                         readout.name  reported
1       NCc1ccc(Nc2ncc(F)c(Nc3ccccc3)n2)cc1  number of identified peptides, AAK1        35
2  CC(C)[C@H](CO)Nc1nc(Nc2ccc(C(=O)O)c(Cl)c2)c2ncn(C(C)C)c2n1 [Purvalanol B, reference compound]  number of identified peptides, AAK1        51
3  CNC1CC2OC(C)(C1OC)n1c3ccccc3c3c4c(c5c6ccccc6n2c5c31)C(=O)NC4 (stereo not drawn)  number of identified peptides, AAK1        44

---

# Tested On: Erk1ps5 (Mus musculus, UniProt Q63844)
# Construct: […]; from tissue; host or cells: mouse brain
# Protocol Notes: Kinobeads elution with test compound, mouse brain lysate, MS
# Type: binding
# Study Conditions: kinase released from kinobeads by specific elution
Rule: 1 for number of identified peptides, Erk1ps5 not less than 50, 0 for anything less.

> print(dat)
                                   compound  assigned.class
1  Cn1c(=O)c(-c2c(Cl)cccc2Cl)cc2cnc(Nc3ccc(CN)cc3)cc21 [CZC7324]               1
2  CC(C)[C@H](CO)Nc1nc(Nc2ccc(C(=O)O)c(Cl)c2)c2ncn(C(C)C)c2n1 [Purvalanol B, reference compound]               0
3    CCCCCCCCCCCCOS(=O)(=O)[O-].[Na+] [SDS]               0
4  CNC1CC2OC(C)(C1OC)n1c3ccccc3c3c4c(c5c6ccccc6n2c5c31)C(=O)NC4 (stereo not drawn) [CZC9280]               0
5  NCCCn1cc(C2=C(c3c[nH]c4ccccc34)C(=O)NC2=O)c2ccccc21 [CZC1038, Bisindolylmaleimide III, reference compound]               0
6  NCc1ccc(Nc2ncc(F)c(Nc3ccccc3)n2)cc1 [CZC00008004]               0

---

# Tested On: PYK2 (Mus musculus, UniProt Q9QVP9)
# Construct: from tissue; host or cells: mouse brain
# Sequence (Q9QVP9 whole entry): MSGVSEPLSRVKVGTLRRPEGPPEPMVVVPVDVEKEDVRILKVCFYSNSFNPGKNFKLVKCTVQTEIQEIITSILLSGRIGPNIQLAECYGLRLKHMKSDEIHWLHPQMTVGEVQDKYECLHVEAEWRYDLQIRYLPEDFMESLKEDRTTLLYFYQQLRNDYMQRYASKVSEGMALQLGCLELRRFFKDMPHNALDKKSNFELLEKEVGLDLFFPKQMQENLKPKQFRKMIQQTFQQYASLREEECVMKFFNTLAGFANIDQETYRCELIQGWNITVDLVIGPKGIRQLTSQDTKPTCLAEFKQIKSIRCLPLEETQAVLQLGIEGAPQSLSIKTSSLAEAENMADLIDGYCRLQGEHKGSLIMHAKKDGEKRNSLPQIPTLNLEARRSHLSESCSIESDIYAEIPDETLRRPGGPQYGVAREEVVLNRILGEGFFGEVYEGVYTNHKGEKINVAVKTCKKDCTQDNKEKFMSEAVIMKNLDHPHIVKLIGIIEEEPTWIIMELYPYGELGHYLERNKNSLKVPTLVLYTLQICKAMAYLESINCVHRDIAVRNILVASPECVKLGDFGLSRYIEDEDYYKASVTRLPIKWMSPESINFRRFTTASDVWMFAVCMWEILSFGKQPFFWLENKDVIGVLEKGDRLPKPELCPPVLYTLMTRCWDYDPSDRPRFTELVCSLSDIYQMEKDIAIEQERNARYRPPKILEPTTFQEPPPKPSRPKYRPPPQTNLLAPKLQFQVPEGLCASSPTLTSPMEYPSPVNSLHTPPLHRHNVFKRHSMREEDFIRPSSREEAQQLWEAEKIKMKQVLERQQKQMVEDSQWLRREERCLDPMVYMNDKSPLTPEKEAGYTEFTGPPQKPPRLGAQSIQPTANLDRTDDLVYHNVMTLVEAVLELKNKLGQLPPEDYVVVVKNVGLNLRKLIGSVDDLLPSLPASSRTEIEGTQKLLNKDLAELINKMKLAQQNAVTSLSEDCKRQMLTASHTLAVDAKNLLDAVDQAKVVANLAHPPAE
# Protocol Notes: Kinobeads elution with test compound, mouse brain lysate, MS
# Assay type: binding
# Study Conditions: kinase released from kinobeads by specific elution
Below, each entry is listed with its recorded number of identified peptides, PYK2.
Readout Name: number of identified peptides, PYK2

> print(dat)
                                   compound                         readout.name  reported
1  NCCCn1cc(C2=C(c3c[nH]c4ccccc34)C(=O)NC2=O)c2ccccc21 [CZC1038, Bisindolylmaleimide III, reference compound]  number of identified peptides, PYK2         7
2  CC(C)[C@H](CO)Nc1nc(Nc2ccc(C(=O)O)c(Cl)c2)c2ncn(C(C)C)c2n1 [Purvalanol B, reference compound]  number of identified peptides, PYK2        48
3  CNC1CC2OC(C)(C1OC)n1c3ccccc3c3c4c(c5c6ccccc6n2c5c31)C(=O)NC4 (stereo not drawn)  number of identified peptides, PYK2        82
4  Cn1c(=O)c(-c2c(Cl)cccc2Cl)cc2cnc(Nc3ccc(CN)cc3)cc21  number of identified peptides, PYK2        42
5          CCCCCCCCCCCCOS(=O)(=O)[O-].[Na+]  number of identified peptides, PYK2        39
6       NCc1ccc(Nc2ncc(F)c(Nc3ccccc3)n2)cc1  number of identified peptides, PYK2        58

---

Below, each entry is listed with its recorded mass spectrometry score, CaMK2b.
# Tested On: UniProtKB P28652
# Sequence (P28652 whole entry): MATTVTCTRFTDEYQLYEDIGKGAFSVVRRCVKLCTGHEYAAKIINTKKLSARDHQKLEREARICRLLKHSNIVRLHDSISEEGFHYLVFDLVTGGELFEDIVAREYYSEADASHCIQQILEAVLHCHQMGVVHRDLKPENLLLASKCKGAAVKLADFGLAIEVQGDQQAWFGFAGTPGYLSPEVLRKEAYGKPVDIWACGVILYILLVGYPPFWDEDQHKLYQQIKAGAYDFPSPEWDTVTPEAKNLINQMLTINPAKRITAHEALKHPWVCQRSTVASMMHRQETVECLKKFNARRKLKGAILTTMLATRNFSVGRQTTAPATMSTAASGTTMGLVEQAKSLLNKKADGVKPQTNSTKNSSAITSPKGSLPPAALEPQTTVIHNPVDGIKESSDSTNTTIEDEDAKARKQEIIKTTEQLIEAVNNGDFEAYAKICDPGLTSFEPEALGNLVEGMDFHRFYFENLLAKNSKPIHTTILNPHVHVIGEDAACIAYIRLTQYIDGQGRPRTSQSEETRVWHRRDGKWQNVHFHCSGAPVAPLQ
# Protocol Notes: Kinobeads elution with test compound, mouse brain lysate, MS
# Type: binding
# Study Conditions: kinase released from kinobeads by specific elution
Readout Name: mass spectrometry score, CaMK2b

> print(dat)
                                   compound  reported
1  CNC1CC2OC(C)(C1OC)n1c3ccccc3c3c4c(c5c6ccccc6n2c5c31)C(=O)NC4 (stereo not drawn)      1182
2  Cn1c(=O)c(-c2c(Cl)cccc2Cl)cc2cnc(Nc3ccc(CN)cc3)cc21       499
3  CC(C)[C@H](CO)Nc1nc(Nc2ccc(C(=O)O)c(Cl)c2)c2ncn(C(C)C)c2n1 [Purvalanol B, reference compound]       679
4  NCCCn1cc(C2=C(c3c[nH]c4ccccc34)C(=O)NC2=O)c2ccccc21 [CZC1038, Bisindolylmaleimide III, reference compound]       834
5          CCCCCCCCCCCCOS(=O)(=O)[O-].[Na+]       615
6       NCc1ccc(Nc2ncc(F)c(Nc3ccccc3)n2)cc1       685
